Molecular target: Beta-secretase 1 (Homo sapiens)
Experiment: Inhibition of human brain beta-secretase, using MBPC125Swe (maltose-binding-protein C-125 Swedish) assay
Starred links: 1 amine or outer side, 2 acyl side, 3 side chain; linkers in the order of their positions; H or OH if unused. Non-standard residues stand in square brackets, D forms with d. Residues, ends and D or L forms follow the SMILES beside them. ξ: configuration not given here. Sta(3ξ) = CC(C)C[C@H](N[*:1])C(O)CC(=O)[*:2]; X5 = O=C(CC(O)[C@H](CC1CCCCC1)N[*:1])[*:2]; Sta = CC(C)C[C@H](N)[C@@H](O)CC(=O)O; Tle = CC(C)(C)[C@H](N)C(=O)O
Parameter: pIC50. Scope: all listed entries.
FYI, pIC50 means -log10 of a concentration in mol per litre.

compound	pIC50
CC[C@H](C)[C@H](NC(=O)[C@H](CCC(=O)O)NC(=O)[C@H](CCC(=O)O)NC(=O)[C@@H](NC(=O)[C@@H](N)CCCCN)[C@@H](C)O)C(=O)N[C@@H](CO)C(=O)N[C@@H](CCC(=O)O)C(=O)N[C@H](C(=O)N[C@@H](CC(N)=O)C(=O)N[C@@H](CC(C)C)[C@@H](O)CC(=O)N[C@H](C(=O)N[C@@H](C)C(=O)N[C@@H](CCC(=O)O)C(=O)N[C@@H](Cc1ccccc1)C(=O)O)C(C)C)C(C)C (H-KTEEISEVN[Sta]VAEF-OH)	7.52

Prompt line: Reported pIC50, compound CSCC[C@H](NC(=O)[C@@H](NC(C)=O)C(C)C)C(=O)N[C@@H](CC1CCCCC1)C(O)CC(=O)N[C@H](C(=O)N[C@@H](C)C(=O)N[C@@H](CCC(=O)O)C(=O)N[C@@H](Cc1ccccc1)C(=O)O)C(C)C (stereo partly drawn) (Ac-VM[X5]VAEF-OH) : ____
Response line: 5.30

Prompt line: What value of pIC50 has been reported for the following compound? CSCC[C@H](NC(=O)[C@@H](NC(C)=O)C(C)C)C(=O)N[C@@H](CC(C)C)C(O)CC(=O)N[C@H](C(=O)N[C@@H](C)C(=O)N[C@@H](CCC(=O)O)C(=O)N[C@@H](C)C(=O)O)C(C)(C)C (stereo partly drawn) (Ac-VM[Sta(3ξ)][Tle]AEA-OH)
Response line: 4.70

###

// reported pIC50 for each item listed
Target: Beta-secretase 1 (Homo sapiens, UniProt P56817)
Sequence (P56817 whole entry): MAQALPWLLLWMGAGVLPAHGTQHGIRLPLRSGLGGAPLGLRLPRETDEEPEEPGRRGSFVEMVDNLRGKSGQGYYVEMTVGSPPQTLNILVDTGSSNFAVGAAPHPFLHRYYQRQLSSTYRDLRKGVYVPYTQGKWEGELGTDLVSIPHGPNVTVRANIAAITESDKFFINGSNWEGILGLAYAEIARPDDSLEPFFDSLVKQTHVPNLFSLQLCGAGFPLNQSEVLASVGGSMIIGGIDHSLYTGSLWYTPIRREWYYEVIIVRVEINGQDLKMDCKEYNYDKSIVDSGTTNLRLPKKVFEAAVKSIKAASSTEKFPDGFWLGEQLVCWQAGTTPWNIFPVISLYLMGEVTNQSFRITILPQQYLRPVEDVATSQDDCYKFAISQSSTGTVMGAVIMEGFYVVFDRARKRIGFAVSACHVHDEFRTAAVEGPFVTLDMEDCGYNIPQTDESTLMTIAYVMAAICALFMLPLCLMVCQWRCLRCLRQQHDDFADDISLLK
Test: Inhibition of human brain beta-secretase, using MBPC125Swe (maltose-binding-protein C-125 Swedish) assay
Starred links: 1 amine or outer side, 2 acyl side, 3 side chain; linkers in the order of their positions; H or OH if unused. Non-standard residues stand in square brackets, D forms with d. Residues, ends and D or L forms follow the SMILES beside them. ξ: configuration not given here. Sta(3ξ) = CC(C)C[C@H](N[*:1])C(O)CC(=O)[*:2]; X1 = CC(C)CC(N[*:1])C(O)CC(=O)[*:2]
Please express pIC50 as -log10 of the molar concentration.

compound	measured target	pIC50
CSCC[C@H](NC(=O)[C@@H](NC(C)=O)C(C)C)C(=O)NC(CC(C)C)C(O)CC(=O)N[C@H](C(=O)N[C@@H](C)C(=O)N[C@@H](CCC(=O)O)C(=O)O)C(C)C (some centres undefined) (Ac-VM[X1]VAE-OH)	Beta-secretase 1 (Homo sapiens, UniProt P56817)	6.00

Next up:
Prompt line: What value of pIC50 has been reported for the following compound? CSCC[C@H](NC(=O)[C@@H](NC(C)=O)C(C)C)C(=O)N[C@@H](CC(C)C)C(O)CC(=O)N[C@H](C(=O)N[C@@H](C)C(=O)N[C@@H](C)C(=O)N[C@@H](Cc1ccccc1)C(=O)O)C(C)C (some centres undefined) (Ac-VM[Sta(3ξ)]VAAF-OH)
Response line: 5.70
